The measured values listed here are drawn from PubChem BioAssay AID602248.

Experiment: counter-screen for M1 agonists: effect in parental CHO-K1 cells (AID 602248);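 note: untransfected CHO-K1 host cells lacking M1 receptor as counterscreen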
Conditions: Fluo-8 calcium fluorescence, at 3 µM, stronger effect = higher value, scaled to maximal ATP response, vehicle zero
In all, about 360,000 compounds went through this assay and about 1,700 (0.47%) were called active. What follows is part of a selection rich in actives, with near analogues and random picks from the rest.
Rule: activation of 1% or more gives condition met; anything lower gives condition not met.

Worked examples follow.
>  <Compound>
COc1ccc(C2(C)NC(=O)N(CC(=O)c3ccc4c(c3)OCO4)C2=O)cc1 (stereo not given)

>  <Assigned category>
condition met

$$$$
>  <Compound>
C(=N/N1CCN(c2ccccc2)CC1)/c1cccs1

>  <Assigned category>
condition not met

$$$$
>  <Compound>
C[C@H](CO)N1C[C@H](C)[C@@H](CN(C)S(=O)(=O)c2ccc(Oc3ccccc3)cc2)OCc2cn(nn2)CCCC1=O

>  <Assigned category>
condition not met

$$$$
>  <Compound>
CC1CCC2(CC1)NC(=O)N(CC(=O)c1ccc3c(c1)OCO3)C2=O (stereo not given)

>  <Assigned category>
condition met

$$$$

Please look at the following compound next.
Kindly determine if activation recorded for O=C(OCc1ccccc1)N1CCC2CC1c1ccc(-c3ccc4c(c3)OCO4)cc12 (stereo not given) is above or exactly 1%.
condition met

----------
Assay: counter-screen for M1 agonists: effect in parental CHO-K1 cells (AID 602248);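 note: untransfected CHO-K1 host cells lacking M1 receptor as counterscreen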
Details: Fluo-8 calcium fluorescence, at 3 µM, stronger effect = higher value, scaled to maximal ATP response, vehicle zero
Hit rate of the full screen: of about 360,000 compounds, about 1,700 (0.47%) were called active. The sample holds actives, similar compounds and a random draw of the others, so the mix is not that of the screen.
Assay metric: activation (%)
Return type: number; implicit unit %.

// below: answered compounds
>  <Compound>
Cc1ccc(C(=O)N2CCC(n3nccc3NC(=O)Nc3cccc(F)c3)CC2)cn1

>  <activation, %>
1.73

$$$$
>  <Compound>
CC(NC(=S)Nc1ccc(OC(F)F)cc1)c1ccc(F)cc1 (stereo unspecified)

>  <activation, %>
18.2

$$$$
>  <Compound>
COc1cccc(CNc2nc(NCc3cccs3)nc3ccsc23)c1

>  <activation, %>
24.7

$$$$
>  <Compound>
Cc1ccc(C(=O)N/C(=C/c2ccco2)C(=O)NCCc2c[nH]c3ccccc23)cc1C

>  <activation, %>
1.71

$$$$
>  <Compound>
N#C/C(=C\c1ccc(N2CCOCC2)o1)C(=O)N1CCOCC1

>  <activation, %>
4.52

$$$$

Record summary for `O=S1(=O)CCOC[C@H](CC2CCCCC2)N1Cc1ccc(F)cc1` : reported activation = -0.24

Record summary for `CCCOc1cc(C)c(S(=O)(=O)n2nnc3ccccc32)cc1C` : reported activation = 0.16

Record summary for COc1ccc(NC2CCCN(C(=O)c3ccncc3)C2)cc1 (stereo unspecified) : reported activation = 0.4

----------
Assay: counter-screen for M1 agonists: effect in parental CHO-K1 cells (AID 602248);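 note: untransfected CHO-K1 host cells lacking M1 receptor as counterscreen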
Settings: Fluo-8 calcium fluorescence, at 3 µM, scaled to maximal ATP response, vehicle zero
The campaign covered roughly 360,000 compounds. About 1,700 (0.47%) were called active. No stated cut-off is given here; in the data, active means activation above about 15%; inactive means the rest. The list comes from a sample in which actives are over-represented; it also holds close analogues and randomly drawn compounds.
Log the outcome using a class from yes for active, no for inactive

Worked examples follow.
>  <Compound>
COc1ccc(CSc2nnnn2-c2ccc(O)cc2)cc1F

>  <Assigned category>
no

$$$$
>  <Compound>
CC(C)(C)NC(=O)CN1CCC(NC(=O)C23CC4CC(CC(C4)C2)C3)CC1

>  <Assigned category>
no

$$$$
>  <Compound>
Cc1nn(C)cc1N1C(=O)c2cccc3c(N)ccc(c23)C1=O

>  <Assigned category>
yes

$$$$
>  <Compound>
CCOC(=O)N1C(=O)C[C@](Sc2ccc(C)cc2)(C(=O)OC)[C@H]1c1ccccc1

>  <Assigned category>
no

$$$$
>  <Compound>
CC(C)NC(=O)C1(C)CCCCN1Cc1cccc(C(F)(F)F)c1 (stereo unspecified)

>  <Assigned category>
no

$$$$

Hello, I am checking results. What call was entered for `CN1C(=O)c2cccc3c(N)ccc(c23)C1=O` ?
yes

Hello, I am checking results. What call was entered for `O=S(=O)(Nc1ccccc1)c1ccc(NS(=O)(=O)c2cccs2)cc1` ?
no

----------
Experiment: counter-screen for M1 agonists: effect in parental CHO-K1 cells (AID 602248);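 note: untransfected CHO-K1 host cells lacking M1 receptor as counterscreen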
Conditions: Fluo-8 calcium fluorescence, at 3 µM, scaled to maximal ATP response, vehicle zero
The campaign covered roughly 360,000 compounds. About 1,700 (0.47%) were called active. Rule as the data show it: active = activation above about 15%; inactive = the rest. This excerpt belongs to a sample that is enriched for actives.
Log the outcome using a class from active, inactive

>  <Compound>
NS(=O)(=O)c1ccc(NC(=O)COC(=O)CCc2c[nH]c3ccccc23)cc1

>  <Assigned category>
inactive

$$$$
>  <Compound>
O=C(Nc1nnc(C2CC2)s1)c1ccccn1

>  <Assigned category>
inactive

$$$$
>  <Compound>
c1ccc2c(c1)OCC(CNc1ncnc3nc[nH]c13)O2 (stereo not drawn)

>  <Assigned category>
active

$$$$

Hello, I am checking results. What call was entered for `Cc1nc2cc(C(F)(F)F)ccc2n1CCNc1nc(-c2cc(Cl)c(N)c(Cl)c2)cs1` ?
inactive

Hello, I am checking results. What call was entered for `COc1ccccc1N1CCN(C(=O)c2cn(-c3ccccc3)nc2-c2cccnc2)CC1` ?
inactive

Hello, I am checking results. What call was entered for `Cc1c(NS(=O)(=O)c2cc(C(=O)NCCc3ccc(F)cc3)cc(Cl)c2Cl)c(=O)n(-c2ccccc2)n1C` ?
inactive

----------
Test: counter-screen for M1 agonists: effect in parental CHO-K1 cells (AID 602248);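 note: untransfected CHO-K1 host cells lacking M1 receptor as counterscreen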
Details: Fluo-8 calcium fluorescence, at 3 µM, scaled to maximal ATP response, vehicle zero
Out of some 360,000 compounds screened, about 1,700 (0.47%) were called active. Rule as the data show it: active = activation above about 15%; inactive = the rest. The sample as a whole holds a higher share of actives than the screen did.
Log the outcome using a class from active, inactive

Worked examples follow.
>  <Molecule>
Cc1cc2nc3c(=O)n(Cc4ccccc4)c(=O)[nH]c3nc2cc1N

>  <Assigned category>
active

$$$$
>  <Molecule>
COc1cc(C(=O)NCc2ccc3c(c2)cc(C)n3C)cc(OC)c1OC

>  <Assigned category>
inactive

$$$$
>  <Molecule>
O=C(O)c1ccc(S(=O)(=O)N2CCOCC2)o1

>  <Assigned category>
inactive

$$$$
>  <Molecule>
CCCCC(=O)NNC(=S)NC(=O)C(c1ccccc1)c1ccccc1

>  <Assigned category>
active

$$$$
>  <Molecule>
CCn1c(CNC(=O)c2cc(OC)c(OC)c(OC)c2)cc2cc(C)ccc21

>  <Assigned category>
active

$$$$

Please look at the following molecule next.
Hello, I am checking results. What call was entered for `CC/C(C)=N/Nc1nc2sc3c(c2c(=O)[nH]1)CC(C)(C)OC3` ?
inactive

----------
Experiment: counter-screen for M1 agonists: effect in parental CHO-K1 cells (AID 602248);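 note: untransfected CHO-K1 host cells lacking M1 receptor as counterscreen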
Conditions: Fluo-8 calcium fluorescence, at 3 µM, stronger effect = higher value, scaled to maximal ATP response, vehicle zero
Screen size: about 360,000 compounds; about 1,700 (0.47%) were called active. Shown is part of a subset that was picked to be rich in actives.
# maps each entry to its activation
Return type: number; implicit unit %.

// below: answered compounds
>  <Compound>
NC(=O)C1=C[C@@H](c2csc3ccccc23)C[C@@H](OCc2ccc(CO)cc2)O1

>  <Unit abbreviation>
%

>  <Numeric result>
5.09

$$$$
>  <Compound>
COC(=O)c1cnc(Nc2cc(C)ccc2OC)c2ccccc12

>  <Unit abbreviation>
%

>  <Numeric result>
1.12

$$$$
>  <Compound>
O=C(c1c(Cl)cccc1Cl)N1CCN(c2cccc3[nH]ccc23)CC1

>  <Unit abbreviation>
%

>  <Numeric result>
2.17

$$$$
>  <Compound>
CN(c1ccccc1)S(=O)(=O)c1ccc(NC(=O)COc2ccccc2)cc1

>  <Unit abbreviation>
%

>  <Numeric result>
7.3

$$$$
>  <Compound>
CC(=O)N1CCN(c2ccc(NCc3ccc(C(C)C)cc3)cc2)CC1

>  <Unit abbreviation>
%

>  <Numeric result>
-0.13

$$$$
>  <Compound>
COc1cc(OC)c(C(=S)N2CCCC2)cc1OC

>  <Unit abbreviation>
%

>  <Numeric result>
-0.12

$$$$
>  <Compound>
Cc1ccc(S(=O)(=O)N(C)c2ccc(OCC(=O)NC3=NCCS3)cc2)cc1

>  <Unit abbreviation>
%

>  <Numeric result>
22.6

$$$$
>  <Compound>
COc1ccc(-c2c(-c3ccc(OC)cc3O)nc(C)nc2C(F)(F)F)cc1

>  <Unit abbreviation>
%

>  <Numeric result>
-0.31

$$$$

Record summary for `CCOc1ccccc1NC(=S)NC(=O)CCc1ccccc1` : reported activation = -0.34

Record summary for `Cc1ccccc1N/C(SCc1ccc(Cl)cc1)=C(/C#N)C(N)=O` : reported activation = 0.43
